Quantity name: melting point

As a guide, the following entries are already answered.
| Query smiles | Quantity name | Result |
| --- | --- | --- |
| COc1ccc(CNc2nc(NCCc3ccccc3F)nc3ncccc23)cc1OC | melting point | 220 to 222 °C |
| COc1cc(CNc2nc(NCCOc3ccccc3)nc3ncccc23)cc(OC)c1 | melting point | 165 to 167 °C |
| COc1ccc(CNc2nc(NCCCc3ccc4ncsc4c3)nc3ncccc23)cc1OC | melting point | 191 to 193 °C |
| COc1ccc(CNc2nc(NCCCc3ccc(C(C)(C)O)cc3)nc3ncccc23)cc1OC | melting point | 198 to 199 °C |
| COc1ccc(CNc2nc(NCCCCc3ccccc3)nc3ncccc23)cc1OC | melting point | 194 to 195 °C |
| COc1ccc(CNc2nc(NCCCc3ccc(C(C)=O)cc3)nc3ncccc23)cc1OC | melting point | 184 to 185 °C |
| COc1cc(CNc2nc(NCc3cc(OC)cc(OC)c3)c3cccnc3n2)cc(OC)c1 | melting point | 159 to 160 °C |
| COc1cc(CNc2nc(NCCc3ccc(Cl)cc3)nc3ncccc23)cc(OC)c1 | melting point | 85 to 90 °C |
| COc1cc(CNc2nc(NCCc3ccccn3)nc3ncccc23)cc(OC)c1 | melting point | 157 to 158 °C |
| COc1ccc(CNc2nc(NCCCc3cccc(C(C)=O)c3)nc3ncccc23)cc1OC | melting point | 152 to 155 °C |

For the next question, use this compound.
Supply melting point value. Item: "COc1ccc(CNc2nc(NCCc3ccc(F)cc3)nc3ncccc23)cc1OC"
225 to 226 °C
